Would you kindly list change in vivo at 100 mg/kg for each of these molecules?
# Test system: Triton WR-1339-Induced Hyperlipemia Mice
# Measurement description: Effect on serum lipid in Triton WR-1339-induced hyperlipemia mice
# Assay type: in vivo, mouse (Crj:ICR-strain)
# Cond: Mus musculus, po (3 x 33.3 mg/kg), average of 10 animals, 24 hours, read-out: % Change of Serum Lipid to Control Group: Total glyceride
# Excerpt: For this test, Crj:ICR-strain male mice aged 7-9 weeks were provided. […] Total cholesterol value, HDL cholesterol value and total triglyceride value in the serum were respectively measured by using the measuring kits and automatic biochemical analyser.
Answers are plain numbers, in %.

Study these solved cases before continuing.
Molecule | Measured number
c1ccc(CCCNc2ccc(-n3ccnc3)cc2)cc1 [Compound 1-17] | -46
c1ccc(OCCCOc2ccc(-n3ccnc3)cc2)cc1 [Compound 1-60] | -37
CC[C@H](C)C(=O)O[C@H]1C[C@H](O)C=C2C=C[C@H](C)[C@H](CC[C@@H](O)C[C@@H](O)CC(=O)O)[C@H]21 [Pravastatin, reference compound] | -28

Look at each molecule and report its change in vivo at 100 mg/kg.
1. O=S(=O)(CCCOc1ccc(-n2ccnc2)cc1)c1ccccc1 [Compound 1-71]
2. c1ccc(CCCOc2ccc(-n3ccnc3)cc2)cc1 [Compound 1-47]
3. c1ccc(CCCCOc2ccc(Cn3ccnc3)cc2)cc1 [Compound 2-49, 1-[4-(4-phenylbutyloxy)benzyl]imidazole]
4. O=S(=O)(CCCOc1ccc(Cn2ccnc2)cc1)c1ccccc1 [Compound 2-71]
5. c1ccc(OCCCOc2ccc(Cn3ccnc3)cc2)cc1 [Compound 2-72]

a:
-20
-23
-10
-21
-29

Below is a list of molecules. For each, state its recorded change in vivo at 100 mg/kg.
1. CN(CCCc1ccccc1)c1ccc(-n2ccnc2)cc1 [Compound 1-27]
2. CCCCCCCCCCNc1ccc(-n2ccnc2)cc1 [Compound 1-115]

a:
[-22, -25]
